For each record, write down the corresponding max response.
# System: CRL-7250
# test_protocol: Cytotoxic Profiling of Annotated Libraries Using Quantitative High-Throughput Screening (AID 1296008); also: % is scaled to controls: 0 for no effect and ±100 for the full control effect; nearly all actives have a fitted effect of over 60% in size
# condition_notes: Five cell lines viability, CellTiter-Glo ATP luminescence, 48-72 h; stronger effect = lower value
Records with an inconclusive call do not appear.
Numbers only, in %.

Here's what some known entries look like.
>>> observed("O=c1c(-c2ccc(O)cc2)coc2cc(OC3O[C@H](CO)[C@H](O)[C@H](O)[C@H]3O)cc(O)c12 (stereo partly drawn)")
-31.9
>>> observed("CN1[C@@H]2CCC[C@@H]1CC(NC(=O)c1nn(C)c3ccccc13)C2 (stereo partly drawn)")
-0.159
>>> observed("C[C@@H](O)[C@H]1C(=O)N2C(C(=O)O)=C(S[C@@H]3CN[C@H](C(=O)N(C)C)C3)[C@H](C)[C@H]12")
3.74
>>> observed("CO[C@H]1C[C@@H]2CC[C@@H](C)[C@@](O)(O2)C(=O)C(=O)N2CCCC[C@@H]2C(=O)O[C@H]([C@H](C)C[C@@H]2CC[C@H](OCCO)[C@H](OC)C2)CC(=O)[C@H](C)C=C(C)[C@@H](O)[C@@H](OC)C(=O)[C@H](C)C[C@H](C)C=CC=CC=C1C")
-75.3
>>> observed("CC(=O)c1ccc(S(=O)(=O)NC(=O)NC2CCCCC2)cc1")
-4.5

Report max response for every entry below.
1. O=C(Nc1c(Cl)cncc1Cl)c1ccc(OC(F)F)c(OCC2CC2)c1
2. O=c1ccn([C@@H]2O[C@H](CO)[C@H](O)[C@H]2O)c(=O)[nH]1
3. O=C(O)C(O)Cc1ccc(O)c(O)c1 (stereo not drawn)

Response:
1. -6.52
2. -5.18
3. -24.8

* * *

# test_protocol: qHTS of pediatric cancer cell lines to identify multiple opportunities for drug repurposing: Primary screen for U-2 OS cells (AID 1347096);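 also: plate controls were DMSO wells for no effect and bortezomib positive control wells for full effect; nearly all actives have a fitted effect of over 50% in size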
# condition_notes: U-2 OS viability, CellTiter-Glo luminescence, 48 h; series mostly up to 46 µM
Records with an inconclusive call do not appear. Calls of active or inactive are those of the source. The call rests on the fitted dose curve; in most records, active means well fitted cell-killing curve with a large enough effect; inconclusive means small, poorly fitted or top-dose-only effect; inactive means flat fitted curve, though single readings scatter.
Please answer using one outcome listed in label 1 = active, label 0 = inactive

The following molecules have reported results that may help.
>>> class("Cc1ccc(C(=O)Nc2cccc(C(F)(F)F)c2)cc1Nc1nc(-c2cccnc2)nc2c1cnn2C")
"label 0"
>>> class("O=c1c(-c2ccc(O)cc2)coc2cc(O[C@@H]3O[C@H](CO)[C@H](O)[C@H](O)[C@H]3O)ccc12")
"label 0"
>>> class("O=C1NC(=O)C(c2ccccc2)(c2ccccc2)N1")
"label 0"
>>> class("O=C1NCC2(CCN(CCc3ccccc3)CC2)O1")
"label 0"
>>> class("Nc1ncnc2c1ncn2[C@@H]1O[C@@H](CO)[C@H](O)[C@H]1O")
"label 0"

Request: Answer briefly: the call reported for `COCCCCC(=NOCCN)c1ccc(C(F)(F)F)cc1` in this assay.
Response: label 0

Request: Try the molecule `O=C(NCCN1CCOCC1)c1ccc(Cl)cc1`
Response: label 0

Request: Try the molecule CC(C)NCC(O)COc1cccc2[nH]ccc12 (centres undefined)
Response: label 0

* * *

# test_protocol: High-throughput drug toxicity screening in the BPDCN cell line Cal-1 (AID 1224825);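 also: cells exposed to compounds for 48 h; 100% = DMSO and 0% = bortezomib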
# condition_notes: Cal-1 BPDCN cell viability, qHTS; at 45.8 µM (top of the series) unless noted
# Text: Blastic plasmacytoid dendritic cell neoplasm (BPDCN) is a rare, aggressive and largely incurable hematologic malignancy originating from plasmacytoid dendritic cells (pDCs). Although an initial response to chemotherapy is common, BPDCN prognosis is extremely poor and most patients relapse with drug-resistant disease leading to a median overall survival of ~1 year after diagnosis. […]
experimental_endpoint: viability (% of control)
The answer consists of two parts: a number and, after it, its unit.

Report viability (% of control) for every entry below.
1. CCNc1cc(NC2CCC(O)CC2)nc(Nc2ccc3c(ccn3Cc3ccccc3)c2)n1 (stereo not given)
2. O=C1c2c(O)cc(O)cc2O[C@H](c2cc(O)c(O)c(O)c2)[C@H]1O
3. COc1ccc(-c2coc3cc(O)ccc3c2=O)cc1
4. NC(=O)NN=Cc1ccc([N+](=O)[O-])o1
5. O=C(O)c1ccccc1C(=O)Nc1ccc(-c2ccccc2)cc1
6. COc1ccc2c(Oc3ccc(NC(=O)c4c(C)n(CC(C)(C)O)n(-c5ccccc5)c4=O)nc3)ccnc2c1
7. CC(C)(C(=O)NCC(F)(F)C(F)(F)F)C(=O)N[C@@H]1C(=O)Nc2ccccc2-c2ccccc21
8. N#CC1(c2ccc(NC(=O)c3cccnc3NCc3ccncc3)cc2)CCCC1

Response:
1: 2.13%; 2: 123%; 3: 109%; 4: 72.8%; 5: 111%; 6: 17.2%; 7: 5.17%; 8: 93.1%

Report viability (% of control) for every entry below.
1. N#Cc1ccc(NC(=O)Nc2ccccc2Br)c2n[nH]nc12
2. C=C1C(=O)OC(CCCCCCCC)C1C(=O)O (stereo not given)

Response:
1. 14.7%
2. 98%
